Recorded Ki, one value per entry.
- test_target: CMP-N-acetylneuraminate-beta-1,4-galactoside alpha-2,3-sialyltransferase (Rattus norvegicus, UniProt Q02734)
- Sequence (Q02734 whole entry): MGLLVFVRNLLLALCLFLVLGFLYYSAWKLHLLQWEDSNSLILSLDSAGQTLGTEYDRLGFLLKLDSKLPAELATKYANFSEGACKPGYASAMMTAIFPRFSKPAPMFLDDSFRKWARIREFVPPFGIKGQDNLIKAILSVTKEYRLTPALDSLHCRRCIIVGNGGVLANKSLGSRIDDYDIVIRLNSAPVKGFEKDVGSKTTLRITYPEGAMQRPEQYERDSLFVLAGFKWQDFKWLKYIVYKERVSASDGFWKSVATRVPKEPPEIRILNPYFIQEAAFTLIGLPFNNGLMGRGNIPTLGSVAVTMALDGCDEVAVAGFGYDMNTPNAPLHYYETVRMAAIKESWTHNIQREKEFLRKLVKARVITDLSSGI
Reply numerically in µM, unit not repeated.

Incoming: Read the entry Nc1ccn(C2O[C@H](COP(=O)(O)N[C@@H](Cc3ccccc3)C(=O)O)C(O)[C@H]2O)c(=O)n1 (single isomer, unassigned) and write its reported Ki.
Outgoing: 2300

Incoming: Read the entry Nc1ccn(C2O[C@H](COP(=O)(O)NCC(=O)O)C(O)[C@H]2O)c(=O)n1 (single isomer, unassigned) and write its reported Ki.
Outgoing: 5300

Incoming: Read the entry Nc1ccn(C2O[C@H](COP(=O)(O)N[C@@H](Cc3c[nH]c4ccccc34)C(=O)O)C(O)[C@H]2O)c(=O)n1 (single isomer, unassigned) and write its reported Ki.
Outgoing: 300

---

Recorded Ki, one value per entry.
- test_target: UniProt:Q02734
- Sequence (Q02734 whole entry): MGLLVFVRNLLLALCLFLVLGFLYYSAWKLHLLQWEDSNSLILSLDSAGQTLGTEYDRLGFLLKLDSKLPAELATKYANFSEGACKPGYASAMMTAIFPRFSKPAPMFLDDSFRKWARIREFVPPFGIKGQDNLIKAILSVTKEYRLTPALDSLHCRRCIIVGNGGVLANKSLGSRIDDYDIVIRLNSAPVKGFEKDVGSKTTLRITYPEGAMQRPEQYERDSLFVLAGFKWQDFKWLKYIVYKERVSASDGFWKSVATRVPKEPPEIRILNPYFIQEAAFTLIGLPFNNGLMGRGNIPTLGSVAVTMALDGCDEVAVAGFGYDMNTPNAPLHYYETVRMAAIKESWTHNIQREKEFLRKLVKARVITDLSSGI
Reply numerically in µM, unit not repeated.

Would you please look over these solved cases?
- compound: "C[C@H](NP(=O)(O)OC[C@H]1OC(n2ccc(N)nc2=O)[C@H](O)C1O)C(=O)O (single isomer, unassigned)"
  test_target: "UniProt:Q02734"
  endpoint_name: "Ki"
  value_observed: 2300
- compound: "Nc1ccn([C@@H]2O[C@H](COP(=O)(O)O)[C@@H](O)[C@H]2O)c(=O)n1"
  test_target: "UniProt:Q02734"
  endpoint_name: "Ki"
  value_observed: 65
- compound: "Nc1ccn(C2O[C@H](COP(=O)(O)N[C@@H](CC(=O)O)C(=O)O)C(O)[C@H]2O)c(=O)n1 (single isomer, unassigned)"
  test_target: "UniProt:Q02734"
  endpoint_name: "Ki"
  value_observed: 5100
- compound: "Nc1ccn(C2O[C@H](COP(=O)(O)OCC(=O)O)C(O)[C@H]2O)c(=O)n1 (single isomer, unassigned)"
  test_target: "UniProt:Q02734"
  endpoint_name: "Ki"
  value_observed: 710

Incoming: Read the entry CC(C)C[C@H](NP(=O)(O)OC[C@H]1OC(n2ccc(N)nc2=O)[C@H](O)C1O)C(=O)O (single isomer, unassigned) and write its reported Ki.
Outgoing: 900

---

- test_target: Beta-galactoside alpha-2,6-sialyltransferase 1 (Rattus norvegicus, UniProt P13721)
- Sequence (P13721 whole entry): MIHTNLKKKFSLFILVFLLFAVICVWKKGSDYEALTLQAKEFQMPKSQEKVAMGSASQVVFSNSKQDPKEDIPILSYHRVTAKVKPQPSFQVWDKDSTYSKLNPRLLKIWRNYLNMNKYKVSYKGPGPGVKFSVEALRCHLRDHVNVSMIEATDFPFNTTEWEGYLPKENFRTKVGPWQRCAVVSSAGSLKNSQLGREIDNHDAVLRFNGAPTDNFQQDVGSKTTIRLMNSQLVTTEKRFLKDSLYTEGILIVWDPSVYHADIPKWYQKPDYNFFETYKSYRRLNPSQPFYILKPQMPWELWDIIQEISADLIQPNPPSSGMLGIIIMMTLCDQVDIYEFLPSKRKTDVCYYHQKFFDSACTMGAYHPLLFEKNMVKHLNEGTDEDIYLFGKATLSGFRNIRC
endpoint_name: pKi
FYI, pKi means -log10 of a concentration in mol per litre.

Incoming: Jot down pKi (Beta-galactoside alpha-2,6-sialyltransferase 1 (Rattus norvegicus, UniProt P13721)) of Nc1ccn(C2O[C@H](COP(=O)(O)OCC(=O)O)C(O)[C@H]2O)c(=O)n1 (single isomer, unassigned) .
Outgoing: 3.43
